Provide the recorded pIC50 for the entries that follow.
biological target: reuptake of dopamine (DA) in synaptosomes (Rattus norvegicus, UniProt P23977); construct: in synaptosomes as described in WO 97/16451; test: In vitro inhibition of dopamine reuptake in synaptosomes
Sequence (P23977 whole entry): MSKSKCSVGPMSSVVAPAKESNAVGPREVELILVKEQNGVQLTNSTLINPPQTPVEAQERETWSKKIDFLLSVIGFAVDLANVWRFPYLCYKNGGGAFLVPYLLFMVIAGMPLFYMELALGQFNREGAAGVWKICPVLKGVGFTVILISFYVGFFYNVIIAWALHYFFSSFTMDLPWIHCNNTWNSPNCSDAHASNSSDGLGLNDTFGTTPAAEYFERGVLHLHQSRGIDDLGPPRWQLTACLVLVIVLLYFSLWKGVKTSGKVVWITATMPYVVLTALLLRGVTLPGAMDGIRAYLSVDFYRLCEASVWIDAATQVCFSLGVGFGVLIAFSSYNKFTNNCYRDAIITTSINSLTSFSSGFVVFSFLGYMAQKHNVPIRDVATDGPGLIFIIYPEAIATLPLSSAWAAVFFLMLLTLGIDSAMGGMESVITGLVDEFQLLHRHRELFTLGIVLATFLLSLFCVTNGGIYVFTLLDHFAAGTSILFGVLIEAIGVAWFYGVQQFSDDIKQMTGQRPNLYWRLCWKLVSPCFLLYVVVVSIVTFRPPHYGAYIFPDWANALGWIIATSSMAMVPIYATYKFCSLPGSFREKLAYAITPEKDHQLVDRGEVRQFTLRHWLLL
Note on units: pIC50 is unitless, being -log10 of a concentration expressed in mol/L.

The molecule listed as Clc1cccc(C2CC3CCC(N3)C2COc2cccc3ccccc23)c1 (stereo not drawn) has a reported pIC50 of 7.06

Data point: Clc1cccc(C2CC3CCC(N3)C2COc2cccc(Cl)c2Cl)c1 (stereo not drawn) ; pIC50 = 7.00

Kindly note the recorded pIC50 for CN1C2CCC1[C@H](COc1cccc(Cl)c1Cl)[C@@H](c1cccc(Cl)c1)C2 (stereo partly drawn) , which is 7.21

====

Field: pIC50. Provide a value for each of the compounds that follow.
target: reuptake of serotonin (5-HT) in synaptosomes (Rattus norvegicus); construct: in synaptosomes as described in WO 97/16451; test: In vitro inhibition of serotonin reuptake in synaptosomes
Sequence (P31652 whole entry): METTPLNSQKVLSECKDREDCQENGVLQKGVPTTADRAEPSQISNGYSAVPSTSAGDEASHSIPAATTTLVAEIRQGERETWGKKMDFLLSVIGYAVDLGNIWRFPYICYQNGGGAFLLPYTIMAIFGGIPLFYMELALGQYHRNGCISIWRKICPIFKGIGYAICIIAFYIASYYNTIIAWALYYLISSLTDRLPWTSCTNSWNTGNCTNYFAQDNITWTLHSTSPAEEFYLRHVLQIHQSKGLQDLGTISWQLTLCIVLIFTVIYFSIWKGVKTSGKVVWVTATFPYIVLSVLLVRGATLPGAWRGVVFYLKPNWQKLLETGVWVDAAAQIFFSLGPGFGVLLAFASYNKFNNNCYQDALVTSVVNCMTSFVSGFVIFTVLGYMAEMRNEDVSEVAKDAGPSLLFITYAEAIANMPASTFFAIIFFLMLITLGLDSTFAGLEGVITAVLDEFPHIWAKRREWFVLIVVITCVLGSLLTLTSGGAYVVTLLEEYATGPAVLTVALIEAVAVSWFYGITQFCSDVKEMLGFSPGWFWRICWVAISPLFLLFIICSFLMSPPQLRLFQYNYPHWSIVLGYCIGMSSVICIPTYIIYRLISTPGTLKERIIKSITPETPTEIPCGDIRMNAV
Value format note: pIC50 is -log10 of concentration (mol/L); just state the number.

Lab note: measured pIC50 of Clc1cccc(C2CC3CCC(N3)C2COc2cccc(Cl)c2Cl)c1 (stereo not drawn) [1st compound of method E] was 8.21

Entry Clc1cccc(C2CC3CCC(N3)C2COc2cccc3ccccc23)c1 (stereo not drawn) [2nd compound of method E] ; pIC50 = 7.89

pIC50 for CN1C2CCC1[C@H](COc1cccc(Cl)c1Cl)[C@@H](c1cccc(Cl)c1)C2 (stereo partly drawn) [1st compound of method D] is 9.14
